# ASSAY_EXPLANATION: in vivo pharmacokinetics, IV
# Parameters: species or system male CD-1 mice
# CONDITION: male, CD-1, mouse, plasma; IV 1 mg/kg
ATTRIBUTE_MEASURED: AUC(0-inf) at 24 h

Challenge: Tell me the measured AUC(0-inf) at 24 h of Cc1[nH]c(C(=O)Nc2nc3c(N4CCOCC4)cc(C(=O)O)cc3s2)c(Cl)c1Cl , please.
Response given: 304 ng·h/mL

###

# Test system: 100 A. baumannii strains (50 MDR, 50 non-MDR)
# ASSAY_EXPLANATION: MIC broth microdilution at IHMA Europe, panel of 100 strains
# Type: cell-based
# CONDITION: Acinetobacter baumannii, A. baumannii IHMA 1829500, Georgia 2018, Non-MDR; read-out: MIC
ATTRIBUTE_MEASURED: MIC

Challenge: Tell me the measured MIC of CN(C)c1cc(NC(=O)CNC(C)(C)C)c(O)c2c1C[C@H]1C[C@H]3[C@H](N(C)C)C(O)=C(C(N)=O)C(=O)[C@@]3(O)C(O)=C1C2=O , please.
Response given: 0.5 µg/mL

Challenge: Tell me the measured MIC of COc1c(N2C[C@@H]3CCCN[C@@H]3C2)c(F)cc2c(=O)c(C(=O)O)cn(C3CC3)c12 , please.
Response given: ≤ 0.5 µg/mL

Challenge: Tell me the measured MIC of C[C@@H](O)[C@H]1C(=O)N2C(C(=O)O)=C(SCCNC=N)C[C@H]12 , please.
Response given: ≤ 0.25 µg/mL

###

# Test system: 100 A. baumannii strains (50 MDR, 50 non-MDR)
# ASSAY_EXPLANATION: MIC broth microdilution at IHMA Europe, panel of 100 strains
# Assay type: cell-based
# CONDITION: Acinetobacter baumannii, A. baumannii IHMA 1857118, Slovenia 2018, Non-MDR; read-out: MIC
ATTRIBUTE_MEASURED: MIC (µg/mL)
A number alone suffices; assume µg/mL.

CN(C)c1cc(NC(=O)CNC(C)(C)C)c(O)c2c1C[C@H]1C[C@H]3[C@H](N(C)C)C(O)=C(C(N)=O)C(=O)[C@@]3(O)C(O)=C1C2=O = 0.25
Cc1[nH]c(C(=O)Nc2nc3c(N4[C@@H]5CC[C@H]4COC5)cc(C(=O)O)cc3s2)c(Cl)c1Cl = 4
C[C@@H](O)[C@H]1C(=O)N2C(C(=O)O)=C(S[C@@H]3CN[C@H](C(=O)N(C)C)C3)[C@H](C)[C@H]12 = 0.25

Pending compound:
Challenge: Tell me the measured MIC of CO/N=C(\C(=O)N[C@@H]1C(=O)N2C(C(=O)[O-])=C(C[N+]3(C)CCCC3)CS[C@H]12)c1csc(N)n1 [Cefepime, cefepime] , please.
Response given: 1

###

Below, each entry is listed alongside its reported MIC.
# Test system: E. faecium (n = 13)
# ASSAY_EXPLANATION: MIC broth microdilution at IHMA Europe
# Assay type: cell-based
# CONDITION: Enterococcus faecium, E. faecium IHMA N° 2077718; read-out: MIC

See these solved cases before continuing.
CC1(C)S[C@@H]2[C@H](NC(=O)[C@H](N)c3ccccc3)C(=O)N2[C@H]1C(=O)O [Ampicillin, ampicillin] = > 32 µg/mL
C[C@@H](O)[C@H]1C(=O)N2C(C(=O)O)=C(SCCNC=N)C[C@H]12 [Imipenem, imipenem] = > 32 µg/mL
Cc1[nH]c(C(=O)Nc2nc3c(N4CCOCC4)cc(C(=O)O)cc3s2)c(Cl)c1Cl [7a] = 0.06 µg/mL
Cc1[nH]c(C(=O)Nc2nc3c(N4[C@@H]5CC[C@H]4COC5)cc(C(=O)O)cc3s2)c(Cl)c1Cl [7h] = ≤ 0.03 µg/mL

Pending compound:
Challenge: Tell me the measured MIC of C[C@H]1COc2c(N3CCN(C)CC3)c(F)cc3c(=O)c(C(=O)O)cn1c23.C[C@H]1COc2c(N3CCN(C)CC3)c(F)cc3c(=O)c(C(=O)O)cn1c23.O [Levofloxacin, levofloxacin] , please.
Response given: > 32 µg/mL

###

# ASSAY_EXPLANATION: physchem
# Assay type: physicochemical
# CONDITION: phosphate-buffered saline (PBS), pH 7.4, PBS pH 7.4; read-out: thermodynamic solubility, Experiment 2
Below, each entry is listed alongside its reported solubility thermodynamic at 24 h.
A number alone suffices; assume µM.

Cc1[nH]c(C(=O)Nc2nc3c(N4CCC5(CC4)OCCO5)cc(C(=O)O)cc3s2)c(Cl)c1Cl [7r] = 27.3
Cc1[nH]c(C(=O)Nc2nc3c(N4CCOCC4)cc(C(=O)O)cc3s2)cc1Cl [16a] = 141
Cc1[nH]c(C(=O)Nc2nc3c(N4CC(C)OC(C)C4)cc(C(=O)O)cc3s2)c(Cl)c1Cl (stereo not shown) [7f] = 0.89

Pending compound:
Challenge: Tell me the measured solubility thermodynamic at 24 h of Cc1[nH]c(C(=O)Nc2nc3c(N4CCOCC4)cc(C(=O)O)cc3s2)cc1F [16b] , please.
Response given: 123

###

# System: Haemophilus influenzae (n = 14)
# ASSAY_EXPLANATION: MIC broth microdilution at IHMA Europe
# Type: cell-based, H. influenzae
# CONDITION: Haemophilus influenzae, H. influenzae IHMA N° 2047461; read-out: MIC
ATTRIBUTE_MEASURED: MIC (µg/mL)
A number alone suffices; assume µg/mL.

Challenge: Tell me the measured MIC of C[C@@H](O)[C@H]1C(=O)N2C(C(=O)O)=C(SCCNC=N)C[C@H]12 [Imipenem, imipenem] , please.
Response given: 0.5

Challenge: Tell me the measured MIC of Cc1[nH]c(C(=O)Nc2nc3c(N4CCOCC4)cc(C(=O)O)cc3s2)c(Cl)c1Cl [7a] , please.
Response given: 0.25

Challenge: Tell me the measured MIC of CC1(C)S[C@@H]2[C@H](NC(=O)[C@H](N)c3ccccc3)C(=O)N2[C@H]1C(=O)O [Ampicillin, ampicillin] , please.
Response given: 32

Challenge: Tell me the measured MIC of C[C@H]1COc2c(N3CCN(C)CC3)c(F)cc3c(=O)c(C(=O)O)cn1c23.C[C@H]1COc2c(N3CCN(C)CC3)c(F)cc3c(=O)c(C(=O)O)cn1c23.O [Levofloxacin, levofloxacin] , please.
Response given: 0.008

Challenge: Tell me the measured MIC of Cc1[nH]c(C(=O)Nc2nc3c(N4[C@@H]5CC[C@H]4COC5)cc(C(=O)O)cc3s2)c(Cl)c1Cl [7h] , please.
Response given: 0.25

###

# ASSAY_EXPLANATION: physchem
# Format: physicochemical
# CONDITION: pH 7.4, thermodynamic solubility (pH = 7.4)
ATTRIBUTE_MEASURED: solubility thermodynamic at 24 h (µM)
A number alone suffices; assume µM.

Challenge: Tell me the measured solubility thermodynamic at 24 h of Cc1[nH]c(C(=O)Nc2nc3c(N4[C@@H]5CC[C@H]4COC5)cc(C(=O)O)cc3s2)c(Cl)c1Cl , please.
Response given: 3.8

###

# ASSAY_EXPLANATION: in vitro
# Assay type: in vitro ADME, mouse
# CONDITION: male, CD-1, mouse; plasma protein binding assay
Define the label as TRUE when recovery at 4 h, 5 μM is strictly less than 90% and as FALSE in all remaining cases.

Challenge: Would you kindly verify if recovery at 4 h, 5 μM of Cc1[nH]c(C(=O)Nc2nc3c(OCc4ccccc4)cc(C(=O)O)cc3s2)c(Cl)c1Cl [E] is strictly less than 90%?
Response given: FALSE

Challenge: Would you kindly verify if recovery at 4 h, 5 μM of Cc1[nH]c(C(=O)Nc2nc3c(N4CCOCC4C)cc(C(=O)O)cc3s2)c(Cl)c1Cl (centres unmarked) [7b] is strictly less than 90%?
Response given: TRUE

Challenge: Would you kindly verify if recovery at 4 h, 5 μM of Cc1[nH]c(C(=O)Nc2nc3c(N4CCOCC4)cc(C(=O)O)cc3s2)c(Cl)c1Cl [7a] is strictly less than 90%?
Response given: TRUE

Challenge: Would you kindly verify if recovery at 4 h, 5 μM of Cc1[nH]c(C(=O)Nc2nc3c(N4C[C@H]5CC[C@@H](C4)O5)cc(C(=O)O)cc3s2)c(Cl)c1Cl [7g] is strictly less than 90%?
Response given: FALSE

Challenge: Would you kindly verify if recovery at 4 h, 5 μM of Cc1[nH]c(C(=O)Nc2nc3c(N4CCOC(C(F)(F)F)C4)cc(C(=O)O)cc3s2)c(Cl)c1Cl (centres unmarked) [7i] is strictly less than 90%?
Response given: FALSE

Challenge: Would you kindly verify if recovery at 4 h, 5 μM of Cc1[nH]c(C(=O)Nc2nc3c(N4CCOC[C@H]4C)cc(C(=O)O)cc3s2)c(Cl)c1Cl [7c] is strictly less than 90%?
Response given: FALSE
